Molecular target: AR-VP16 (Homo sapiens)
Sequence (P10275 560-920 limits assumed): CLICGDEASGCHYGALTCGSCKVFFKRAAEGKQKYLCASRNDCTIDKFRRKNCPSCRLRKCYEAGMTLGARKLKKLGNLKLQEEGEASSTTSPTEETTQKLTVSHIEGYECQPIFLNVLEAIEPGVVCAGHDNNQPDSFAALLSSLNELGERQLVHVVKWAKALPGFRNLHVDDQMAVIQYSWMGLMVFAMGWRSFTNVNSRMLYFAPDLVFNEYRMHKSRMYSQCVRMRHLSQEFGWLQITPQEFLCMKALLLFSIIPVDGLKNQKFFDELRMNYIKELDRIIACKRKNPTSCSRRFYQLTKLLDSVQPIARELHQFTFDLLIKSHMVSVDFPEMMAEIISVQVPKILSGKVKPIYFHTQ
Experiment: AR-VP16 DNA Binding Assay, antagonist mode (HepG2 cells, 0.1 nM R1881)
PROPERTY_MEASURED: IC50

Problem: Query IC50 for "COCCOc1ccc(N2C(=S)N(c3ccc(C#N)c4ncccc34)C(=O)C23CCC3)cc1F"
Solution: < 1000 nM

Problem: Query IC50 for "CN1CCN(C(=O)COc2ccc(N3C(=S)N(c4cnc(C#N)c(C(F)(F)F)c4)C(=O)C34CCC4)cc2F)CC1"
Solution: < 1000 nM

Problem: Query IC50 for "Cc1cc(N2C(=O)C3(CCC3)N(c3ccc(C(=O)NC4CCOCC4)c(F)c3)C2=S)cnc1C#N"
Solution: > 1000 nM

Problem: Query IC50 for "Cc1cc(N2C(=O)C3(CCC3)N(c3ccc(C(=O)Nc4ccccc4Cl)c(F)c3)C2=S)cnc1C#N"
Solution: < 1000 nM

Problem: Query IC50 for "Cc1cc(N2C(=O)C3(CCC3)N(c3ccc(C(=O)Nc4ccn(C)n4)c(F)c3)C2=S)cnc1C#N"
Solution: > 1000 nM

Problem: Query IC50 for "N#Cc1ncc(N2C(=O)C3(CCC3)N(c3ccc(C(=O)NCc4ccccc4)c(F)c3)C2=S)cc1C(F)(F)F"
Solution: < 1000 nM

Problem: Query IC50 for "N#Cc1ncc(N2C(=O)C3(CCC3)N(C3CCCCC3)C2=S)cc1C(F)(F)F"
Solution: < 1000 nM

Data origin: patent US9108944B2
